The origin of these recorded values is patent US12486253B2.

Target: BRAF V600E (Homo sapiens, UniProt P15056, V600E)
Sequence (P15056 whole entry V600E): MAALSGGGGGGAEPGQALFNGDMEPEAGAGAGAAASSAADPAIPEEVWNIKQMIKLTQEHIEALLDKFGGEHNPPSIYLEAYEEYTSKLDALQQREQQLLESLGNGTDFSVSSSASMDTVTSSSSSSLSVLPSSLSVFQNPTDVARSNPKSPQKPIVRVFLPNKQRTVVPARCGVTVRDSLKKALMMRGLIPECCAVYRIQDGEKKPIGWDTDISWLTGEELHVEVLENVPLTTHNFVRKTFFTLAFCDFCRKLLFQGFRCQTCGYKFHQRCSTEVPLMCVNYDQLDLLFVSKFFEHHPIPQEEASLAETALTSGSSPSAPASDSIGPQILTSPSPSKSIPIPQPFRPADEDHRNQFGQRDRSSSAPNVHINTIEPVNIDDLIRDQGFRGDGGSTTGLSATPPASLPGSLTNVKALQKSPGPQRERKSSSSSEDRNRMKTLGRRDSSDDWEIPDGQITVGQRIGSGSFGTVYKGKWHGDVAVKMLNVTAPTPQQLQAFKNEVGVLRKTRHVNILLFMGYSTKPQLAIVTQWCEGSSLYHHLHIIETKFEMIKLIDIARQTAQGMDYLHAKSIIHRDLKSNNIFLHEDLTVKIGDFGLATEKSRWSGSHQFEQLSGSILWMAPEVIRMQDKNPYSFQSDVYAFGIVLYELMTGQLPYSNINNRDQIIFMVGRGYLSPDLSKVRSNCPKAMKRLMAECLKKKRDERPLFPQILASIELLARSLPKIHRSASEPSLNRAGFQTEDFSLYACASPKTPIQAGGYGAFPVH
Assay: HiBiT cellular BRAF^V600E degradation assay
Assay type: cell-based
Conditions: A375.10 cells, 24 h; concentration at which 50% of total cellular BRAF^V600E is degraded
Let's look at some molecules and their measured DC50.
Note: unit nM is implicit; provide only the numeric part.

The examples below pair each entry with its known result.
{"MOLECULE": "COC1CN(S(=O)(=O)Nc2ccc(F)c(Oc3ccc4ncn([C@H]5COC6(CCN(C(=O)CC7(O)CCN(c8cc9c(cc8F)c(N8CCC(=O)NC8=O)nn9C)CC7)CC6)C5)c(=O)c4c3)c2C#N)C1", "MEASUREMENT": 142}
{"MOLECULE": "CCN(C)S(=O)(=O)Nc1ccc(F)c(Oc2ccc3ncn(-c4ccc(N5CCN(C(=O)CN6CCC(c7ccc(N[C@H]8CCC(=O)NC8=O)cc7F)CC6)CC5)nc4)c(=O)c3c2)c1C#N", "MEASUREMENT": 21.5}
{"MOLECULE": "CCN(C)S(=O)(=O)Nc1ccc(F)c(Oc2ccc3ncn([C@H]4CCC5(CCN(C(=O)CC6(O)CCN(c7ccc8c(N9CCC(=O)NC9=O)nn(C)c8c7F)CC6)CC5)C4)c(=O)c3c2)c1C#N", "MEASUREMENT": 28.9}

Please state recorded DC50 (tested on BRAF V600E (Homo sapiens, UniProt P15056, V600E)) of CCN(C)S(=O)(=O)Nc1ccc(F)c(Oc2ccc3ncn([C@H]4COC5(CCN(C(=O)CN6CCC(c7cc(OC)c(NC8CCC(=O)NC8=O)cc7F)CC6)CC5)C4)c(=O)c3c2)c1C#N (stereo partly shown)
43.2

N#Cc1c(NS(=O)(=O)C2CCCC2)ccc(F)c1Oc1ccc2ncn([C@H]3COC4(CCN(C(=O)CN5CCC(c6ccc(NC7CCC(=O)NC7=O)cc6F)CC5)CC4)C3)c(=O)c2c1 (stereo partly shown) , same question.
31.6

CCN(C)S(=O)(=O)Nc1ccc(F)c(Oc2ccc3ncn(-c4cnc(N5CCN(C(=O)CN6CCC(c7ccc(NC8CCC(=O)NC8=O)cc7F)CC6)CC5)nc4)c(=O)c3c2F)c1C#N (stereo not shown) , same question.
8.28

CCN(C)S(=O)(=O)Nc1ccc(F)c(Oc2ccc3ncn([C@H]4CCC5(CCN(C(=O)CN6CCC(c7ccc(C8CCC(=O)NC8=O)cc7F)C(F)(F)C6)CC5)C4)c(=O)c3c2)c1C#N (stereo partly shown) , same question.
11.3

----------
Target: BRAF V600E (Homo sapiens, UniProt P15056, V600E)
Experiment: HiBiT cellular BRAF^V600E degradation assay
Format: cell-based
Details: A375.10 cells, 24 h; concentration at which 50% of total cellular BRAF^V600E is degraded
Let's look at some molecules and their measured DC50.

Any idea what its DC50 is? The molecule is `CN(C1CC1)S(=O)(=O)Nc1ccc(F)c(Oc2ccc3ncn([C@H]4COC5(CCN(C(=O)CC6(O)CCN(c7cc8c(cc7F)c(N7CCC(=O)NC7=O)nn8C)CC6)CC5)C4)c(=O)c3c2)c1C#N`
25.7 nM

CCN(C)S(=O)(=O)Nc1ccc(F)c(Oc2ccc3ncn([C@H]4COC5(CCN(C(=O)CC6(O)CCN(c7cc8c(cc7F)c(N7CCC(=O)NC7=O)nn8C)CC6)CC5)C4)c(=O)c3c2F)c1C#N (single isomer, unassigned) , same question.
25.6 nM
